Where these numbers come from: PubChem BioAssay AID1845203

Tested on: G-401 tumor spheroids, viability % test/control
Assay: Anticancer human tumor G-401 cell line growth inhibition;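 note: spheroids exposed to compound for 7 days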;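 for viability, T/C: 100% = DMSO vehicle-treated spheroids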
Conditions: second compound 0.3 µM; first compound 3 µM; stronger effect = lower value; spheroids with HUVEC and MSC
Protocol: Multicellular complex tumor spheroid response to DNA repair inhibitors in combination with DNA-damaging drugs This study explores the anticancer activities of DNA-damaging drugs and inhibitors of DNA damage repair, both as single agents and in combinations. […] Twenty-six patient-derived or established malignant cell lines were evaluated representing sarcoma, melanoma, small cell lung cancer (SCLC), non-small cell lung cancer (NSCLC), as well as bladder, ovarian and pancreatic cancers. […]
Recorded measurements of viability, T/C, one per entry
Note: unit % is implicit; provide only the numeric part.

COMPOUND | viability, T/C / %
CNCc1ccc(-c2cc(-c3nc(-c4ccc(S(=O)(=O)C(C)C)cc4)cnc3N)on2)cc1 + CC[C@@]1(O)C(=O)OCc2c1cc1n(c2=O)Cc2cc3c(CN(C)C)c(O)ccc3nc2-1 | 4.97
Cn1ncnc1[C@H]1c2n[nH]c(=O)c3cc(F)cc(c23)N[C@@H]1c1ccc(F)cc1 + CC[C@@]1(O)C(=O)OCc2c1cc1n(c2=O)Cc2cc3c(CN(C)C)c(O)ccc3nc2-1 | 2.85
O=C(c1cc(Cc2n[nH]c(=O)c3ccccc23)ccc1F)N1CCN(C(=O)C2CC2)CC1 + CC[C@@]1(O)C(=O)OCc2c1cc1n(c2=O)Cc2cc3c(CN(C)C)c(O)ccc3nc2-1 | 6.35

Now consider a different compound.
Problem: Query (compound): Cc1sc2c(c1C)C(c1ccc(Cl)cc1)=NC(CC(=O)Nc1ccc(O)cc1)c1nnc(C)n1-2 (centres undefined) + CC[C@@]1(O)C(=O)OCc2c1cc1n(c2=O)Cc2cc3c(CN(C)C)c(O)ccc3nc2-1 ; field requested: viability, T/C
Solution: 0.5

---

Tested on: G-401 tumor spheroids, viability % test/control
Experiment: Anticancer human tumor G-401 cell line growth inhibition;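 note: spheroids exposed to compound for 7 days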
Details: curve of first compound; second compound 1 µM; spheroids with HUVEC and MSC
Protocol: Multicellular complex tumor spheroid response to DNA repair inhibitors in combination with DNA-damaging drugs This study explores the anticancer activities of DNA-damaging drugs and inhibitors of DNA damage repair, both as single agents and in combinations. […] Twenty-six patient-derived or established malignant cell lines were evaluated representing sarcoma, melanoma, small cell lung cancer (SCLC), non-small cell lung cancer (NSCLC), as well as bladder, ovarian and pancreatic cancers. […]
PROPERTY_MEASURED: IC50

Consider the worked cases shown below.
COMPOUND | IC50
CC(C)n1c(=O)n(C)c2cnc3cc(F)c(-c4ccc(OCCCN5CCCCC5)nc4)cc3c21 + Cn1nnc2c(C(N)=O)ncn2c1=O | > 10 µM
Cc1cc(C)c(CNC(=O)c2cc(-c3ccc(CN4CCOCC4)cc3)cc3c2cnn3C2CCCC2)c(=O)[nH]1 + Cn1nnc2c(C(N)=O)ncn2c1=O | > 10 µM

In the following, a different compound is considered.
Problem: What does the data say about its IC50? Entry: [2H]c1nc(C)nc([2H])c1-c1cc(NC[C@@H](C)c2cccc3c(C(=O)NC)ccnc23)ncn1 + Cn1nnc2c(C(N)=O)ncn2c1=O
Solution: > 10 µM
